biological target: Metabotropic glutamate receptor 4 (Homo sapiens); assay: Positive allosteric modulation of human mGlu4 receptor expressed in BHK cells assessed as potentiation of glutamate-induced calcium mobilization by FLIPR analysis
Sequence (Q14833 whole entry): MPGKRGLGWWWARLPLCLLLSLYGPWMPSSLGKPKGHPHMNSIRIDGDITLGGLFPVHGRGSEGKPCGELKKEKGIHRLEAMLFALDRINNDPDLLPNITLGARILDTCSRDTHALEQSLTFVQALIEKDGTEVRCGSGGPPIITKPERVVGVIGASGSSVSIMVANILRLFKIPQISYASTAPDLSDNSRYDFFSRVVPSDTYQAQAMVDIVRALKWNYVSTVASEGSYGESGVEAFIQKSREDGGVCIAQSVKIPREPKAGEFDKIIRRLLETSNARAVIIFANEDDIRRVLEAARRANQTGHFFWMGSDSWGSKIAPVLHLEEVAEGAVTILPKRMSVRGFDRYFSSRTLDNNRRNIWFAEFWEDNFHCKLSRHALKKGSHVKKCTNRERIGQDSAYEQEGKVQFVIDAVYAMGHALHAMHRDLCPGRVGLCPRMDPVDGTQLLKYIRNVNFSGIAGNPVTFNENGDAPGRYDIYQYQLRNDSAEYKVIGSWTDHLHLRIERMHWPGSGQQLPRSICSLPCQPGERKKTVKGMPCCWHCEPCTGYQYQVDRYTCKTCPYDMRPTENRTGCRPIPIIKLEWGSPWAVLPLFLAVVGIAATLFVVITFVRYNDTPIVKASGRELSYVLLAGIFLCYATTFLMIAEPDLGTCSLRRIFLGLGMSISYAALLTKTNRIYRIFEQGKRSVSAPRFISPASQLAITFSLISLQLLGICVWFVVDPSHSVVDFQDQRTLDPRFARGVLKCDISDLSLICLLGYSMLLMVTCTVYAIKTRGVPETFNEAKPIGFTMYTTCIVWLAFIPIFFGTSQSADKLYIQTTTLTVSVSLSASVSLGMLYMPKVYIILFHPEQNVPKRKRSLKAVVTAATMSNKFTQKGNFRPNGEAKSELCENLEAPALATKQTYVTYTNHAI
Observation type: EC50 (nM)

Smiles code: c1ccc(-n2cc(-c3ccnc4cc(OCCCN5CCOCC5)ccc34)cn2)cc1
Observation type: EC50
Experimental result: 2800

(P) Cc1nn(-c2ccccc2)cc1-c1ccnc2ccccc12
(Q) Fc1cccc(-n2cc(-c3ccnc4ccccc34)cn2)c1
(R) COc1ccc2c(-c3cnn(-c4ccccc4)c3)ccnc2c1
Arrange these 3 molecules in increasing order of EC50. Give the order by naming the labels one after another as requested.
R, P, Q
(R: 220 nM, P: 480 nM, Q: 3100 nM)
